# ASSAY SUMMARY: Toxicity liver stage against HepG2, at 10uM
# Format: cell-based
# Set-up: test concentration 10 uM, cell line HepG2-A16-CD81EGFP
# CONDITION NOTES: human, HepG2-A16-CD81EGFP cells; read-out: INHIBITION
In this section we review reported cytotoxicity at 10 µM values for a set of compounds.
// note: answer is a bare numeric in %

> print(dat)
                                   compound                 metric  result.value
1  Cn1nnc2c1C(COCc1ccccn1)CN(C(=O)c1ccsc1)C2 (stereo not given)  cytotoxicity at 10 µM          13.6
2  Cc1ccc2occ(CN3CCN(c4ncccn4)CC3)c(=O)c2c1  cytotoxicity at 10 µM         -2.46
3  COc1cccc(CN(C)C(=O)c2csc(-c3nnc[nH]3)n2)c1  cytotoxicity at 10 µM         -14.4
4   CCc1ccc(CN2CC[C@@H]3NC(=O)CC[C@@H]32)o1  cytotoxicity at 10 µM          3.06

Now, please, on to the next compound.
Request: # lookup: cytotoxicity at 10 µM of N#CCCCS(=O)(=O)NC1(c2cccc(Cl)c2)CC1
Result: -1.39
